- protocol.details: yeast display, Sf9 membrane polyspecificity reagent, FACS + sequencing; frameworks hold sequencing errors
measured.attribute: polyreactivity (PSR sort gate)

Consider the following illustrative entries.
residues	polyreactivity (PSR sort gate)
QVQLVESGGGLVQAGGSLRLSCAASGSIFQYNAMGWYRQAPGKERELVAVISRSGSRTYYADSVKGRFTISRDNAKNTVYLQMNSLKPEDTAVYYCAAPFTSIGARDYYYWGQGTQVTVSS	high polyreactivity
QVQLVESGGGLVQAGRTLRLSCAASGRTLGLYAMGWYRQAPGKERELVAAITTSGGSTSYADSVKGRFTISRDNAKNTVYLEMNSLKPEDTSVYYCAVDVEVTFFQYSWIYGSWGQGTQVTVSS	low polyreactivity
QVQLVESGGGLVQAGGSLRLSCAASGSTFFTYAMGWYRQAPGKERELVAAISWSGGTTYYADSVKGRFTISRDNAKNTVYLQMNSLKPEDTAVYYCASDRDGILKANDYWGQGTQVTVSS	low polyreactivity
QVQLVESGGGLVQAGGSLRLSCAASGSTFQFNAMGWYRPAPGKEREFVAAITSSAGRTYYADSVKGRFTISRDNAKKTVYLQMNSLKPEDTAVYYCATGPYSPPSAGPEYDYWGQGTQVTVSS	high polyreactivity
QVQLVESGGGLVQAGGSLRLSCAASRSIFVRNAMGWYRPAPGKERELVAAITSDVNTYYADSVKGRFTISRDNAKNTVYLQMNSLKPEDTAVYYCAKGVTSQPNDPAPFPRYEYWGQGTQVTVSS	low polyreactivity

(Q) Identify measured polyreactivity (PSR sort gate) associated with QVQLVESGGGLVQPGGSLRLSCAASGRTFTKNAMGWYRQAPGKERELVAAISISGGSTYYADSVKGRFTISRDNAKNTVYLLMNSLKPEDTAVYYCAADVVTYLSYTLDYWGQGTQVTVSS
(A) low polyreactivity

(Q) Identify measured polyreactivity (PSR sort gate) associated with QVQLVEAGGGLVQAGGSLRLSCAASGRTFKGYAMGWYRPAPGKERELVAAITKRGGSTYYADSVKGRFTISRDNAKNTVYLQMNSLKPEDTAVYYCNADKQGSRHGDDYWGQGTQVTVSS
(A) high polyreactivity

(Q) Identify measured polyreactivity (PSR sort gate) associated with QVQLVESGGGLVQAGGSLRLSCAASGRIFFIYAMGWYRQAPGKERELVAAITWRGGRTYYADSVKGRFTISRDNAKNTVYLQMNSLKPEDTAVYYCAADYRDSYLFYYWGQGTQVTVSS
(A) high polyreactivity
